target: UniProt:O00187; assay: MASP-2 co-crystallization, X-ray crystallography and structure analysis (H-bonds, van der Waals contacts); conditions: Table A4-1; element C4;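 further: distance from averaged pharmacophore element to bound ligand; missing value means element absent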
Sequence (O00187 445-686): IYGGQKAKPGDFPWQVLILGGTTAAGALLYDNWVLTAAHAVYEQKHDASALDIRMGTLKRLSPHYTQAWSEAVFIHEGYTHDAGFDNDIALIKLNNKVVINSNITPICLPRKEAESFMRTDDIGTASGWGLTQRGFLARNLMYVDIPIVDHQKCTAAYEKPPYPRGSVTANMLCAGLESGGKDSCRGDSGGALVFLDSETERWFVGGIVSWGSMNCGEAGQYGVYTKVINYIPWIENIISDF
Sequence (O00187 364-432 partner): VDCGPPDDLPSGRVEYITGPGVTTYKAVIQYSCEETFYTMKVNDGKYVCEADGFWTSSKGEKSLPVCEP
Quantity kind: Ligand-pharmacophore element distance, pharmacophore element C4

| Compound | Target desc | Measured |
| --- | --- | --- |
| C[C@H](NC(=O)[C@H](N)C1Cc2ccccc2C1)C(=O)NCc1ccc2nc(N)[nH]c2c1 | UniProt:O00187 | 0 |
| C[C@H](NC(=O)[C@H]1C[C@@H](c2ccccc2)CCN1)C(=O)NCc1cc(Cl)ccc1O.Cl [1078_13] | UniProt:O00187 | 0 |
| Cc1nc(N)ccc1CNC(=O)C(C)NC(=O)[C@H]1C[C@H](c2cccc(-c3ccccc3)c2)CN1 (stereo in doubt) | UniProt:O00187 | 0 |

// provenance: patent US12195427B2
